Several publications report Ki on UniProtKB P0DMS8; those values are gathered here.
Your answer should be a plain number; it is taken to be in nM.

>  <record smiles>
Cc1ccc(-c2nc(N)c3nn(-c4ccccc4)cc3n2)o1

>  <result number>
147

$$$$
>  <record smiles>
COc1ccc(-c2cn3cc(-c4ccccc4)nc(NC(=O)c4ccccc4)c3n2)cc1

>  <result number>
312

$$$$
>  <record smiles>
O=C(Nc1nc(-c2ccccc2)cn2cc(-c3ccccc3)nc12)c1cccs1

>  <result number>
185

$$$$

stdin: Hi! What's the reported Ki for CCCn1c(=O)c2[nH]c(-c3cnn(Cc4noc(-c5cccc(OC)c5)n4)c3)nc2n(CCC)c1=O on UniProtKB P0DMS8?
stdout: 2000

---

Target protein (sequence): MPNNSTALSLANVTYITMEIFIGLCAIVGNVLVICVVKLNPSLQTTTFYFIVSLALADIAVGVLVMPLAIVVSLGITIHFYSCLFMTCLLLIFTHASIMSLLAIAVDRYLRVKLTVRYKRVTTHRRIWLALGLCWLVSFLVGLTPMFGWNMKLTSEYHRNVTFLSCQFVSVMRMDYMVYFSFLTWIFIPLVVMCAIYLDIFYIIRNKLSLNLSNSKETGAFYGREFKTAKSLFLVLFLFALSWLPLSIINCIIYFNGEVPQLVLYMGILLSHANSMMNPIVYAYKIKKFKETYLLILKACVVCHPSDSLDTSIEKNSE
Several publications report pKi on the protein given by its sequence; those values are gathered here.
# pKi: negative log10 of molar concentration; output just the value

Solved cases (6 shown):
>  <compound>
COc1ccc(-n2nc3c(NS(=O)(=O)c4ccccc4)nc4ccccc4n3c2=O)cc1

>  <result number>
8.66

$$$$
>  <compound>
CCCn1cc2nc(N)n3nc(-c4ccco4)nc3c2c1

>  <result number>
7.26

$$$$
>  <compound>
CCNC(=O)[C@H]1OC(n2cnc3c(NCCCCCCCCCCNc4ccc([N+](=O)[O-])c5nonc45)ncnc32)[C@H](O)[C@@H]1O (stereo partly specified)

>  <result number>
7.55

$$$$
>  <compound>
Cc1ccc(S(=O)(=O)n2cc(CCOc3nc(N)c4ncn([C@@H]5O[C@H](CO)[C@@H](O)[C@H]5O)c4n3)c3cc(Br)ccc32)cc1

>  <result number>
5.06

$$$$
>  <compound>
c1ccc(CCNc2nc3ccccc3n3nc(-c4ccco4)nc23)cc1

>  <result number>
6.43

$$$$
>  <compound>
Cc1ccc(Nc2nc(-c3ccc(C)cc3)c(C(=O)Nc3sc4c(c3C(N)=O)CCCC4)s2)cc1

>  <result number>
6.48

$$$$

stdin: Request the reported pKi associated with CNC(=O)[C@@]12C[C@@H]1[C@@H](n1cnc3c(/C=C(\O)c4ccccc4Cl)nc(C#Cc4ccccc4Cl)nc31)[C@H](O)[C@@H]2O
stdout: 6.29

stdin: Request the reported pKi associated with Nc1nc2ccccc2c2cn(-c3ccccc3)nc12
stdout: 6.26

stdin: Request the reported pKi associated with O=C(Nc1ccc(-c2ccncc2Cl)c(-c2ccco2)n1)C1CC1
stdout: 5.73

stdin: Request the reported pKi associated with O=C(COc1ccccc1)Nc1nc2nn(CCc3ccccc3)cc2c2nc(-c3ccco3)nn12
stdout: 6.52

stdin: Request the reported pKi associated with C=CCN1C(=O)N2CC(C)N=C2c2[nH]c(-c3cc(OC)no3)nc21 (racemic)
stdout: 8.45

stdin: Request the reported pKi associated with O=C(Cc1ccccc1)Nc1nc2ncccc2n2c(=O)n(-c3ccccc3)nc12
stdout: 7.93

stdin: Request the reported pKi associated with OC[C@H]1OC(n2cnc3c(NCc4cccc(I)c4)nc(-n4cc(-c5ccccn5)cn4)nc32)[C@H](O)[C@@H]1O (stereo partly specified)
stdout: 6.77

stdin: Request the reported pKi associated with O=C(NC1CCC1)[C@H]1S[C@@H](n2cnc3c(NCc4cccc(I)c4)ncnc32)[C@H](O)[C@@H]1O
stdout: 8.93

stdin: Request the reported pKi associated with CCCc1c(C(=O)SCC)c(CC)nc(-c2ccccc2)c1C(=O)OCC(F)(F)C(F)(F)F
stdout: 6.35

stdin: Request the reported pKi associated with Cc1cccc(-n2cc3c(n2)c(N)nc2ccccc23)c1
stdout: 7.00

stdin: Request the reported pKi associated with CCNC(=O)[C@H]1O[C@@H](n2cnc3c(Nc4ccc(OCC(=O)Nc5ccc(OC)c(OC)c5)cc4)ncnc32)[C@H](O)[C@@H]1O
stdout: 7.27

stdin: Request the reported pKi associated with CCCn1c(=O)c2c(nc3cc(OC)ccn32)n(Cc2ccccc2)c1=O
stdout: 8.00
